Measured log10(IC50) accompanies every entry in the list below.
biological target: purified HLA-DR DRB1*1302 (human); test: competition with 125I-labelled reference peptide, purified HLA
// units: nM (pre-log); metric: IC50; scale: log10

Binder | log10(IC50)
AMVFSQEDCMIKAVR (modifications not checked) [Flu.PB2.404] | 3.96
FLILGKEDRRYGPAL (modifications not checked) [Flu.PB2.697] | 2.07
LIQLIVSGRDEQSIA (modifications not checked) [Flu.PB2.384] | 3.67

Query: # return recorded log10(IC50) for input VSKMGVDEYSSTERV (modifications not checked) [Flu.PB2.483]
Result: 3.27

Query: # return recorded log10(IC50) for input RVVVSIDRFLRVRDQ (modifications not checked) [Flu.PB2.496]
Result: 0.91

Source listed as patent US20080032921A1.
